Reported values of growth for individual entries
# Test system: ACHN renal
# EXPERIMENT_SUMMARY: NCI-60 one-dose screen, 48 h (100 = growth as untreated, 0 = no growth, -100 = all killed)
# CONDITION_CONTEXT: 10 µM unless noted
The panel holds about 83,000 compounds, 20% with a hit somewhere; the sample as a whole holds those more often.
The response must be a number in % with no trailing unit.

Some compounds with known growth results, for comparison:
| COMPOUND | growth [%] |
| --- | --- |
| COc1cc(C(=O)/C=C/c2c(C(F)(F)F)nc3sccn23)cc(OC)c1OC | -69.4 |
| C=C(C)[C@@H]1CC[C@]2(C(=O)NC3CCCCC3)CC[C@]3(C)[C@H](CC[C@@H]4[C@@]5(C)CCCNC(C)(C)[C@@H]5CC[C@]43C)[C@@H]12 | 51 |
| Cc1cccc(Cc2cnc(NC(=O)/C=C/c3ccco3)s2)c1 | 35.3 |
| CCCCCCCCn1ccc2cc(NC(=O)Cn3cc(CN4CCCC4)nn3)ccc21 | 89.4 |
| COC(=O)[C@]12CC[C@@H](C)[C@H](C)[C@@H]1C1=CC[C@@H]3[C@@]4(C)C(C=O)=C[C@@](C)(COC(C)=O)[C@@H]4C(=O)C[C@@]3(C)[C@]1(C)CC2 | 23.5 |
| Cc1c(O)cc(-c2cnc(N/N=C\c3ccc(Cl)cc3)s2)c(O)c1C | 100 |
| CCCCCCCCCCN(CCCCCCCCCC)CC(=O)c1ccc2cc(Br)c3ccccc3c2c1 | 97.3 |
| COc1cc2nc(Cl)nc(Nc3ccc(S(=O)(=O)Nc4nccs4)cc3)c2cc1OC | 88.2 |
| CCN(CC)Cc1cccc(C(=O)OC)c1 | 96.6 |
| COc1cccc(-c2nn(-c3ccccc3)cc2-c2ccnc(NCCCNC(=O)Nc3ccc(Cl)c(Cl)c3)c2)c1 | 32.9 |

The reported value for COc1ccc(-c2csc(C3=C(O)CN(C(C)C)C3=N)n2)cc1OC in terms of growth is 103

Kindly note the recorded growth for CC1=C(SCCC(=O)OC(C[Se]C2=C(C)C(=O)c3ccccc3C2=O)C(=O)NCCCCCC(=O)OCc2ccccc2)C(=O)c2ccccc2C1=O (stereo not drawn) , which is 36.4

growth recorded for this compound, Cc1ccc2nc(NC(=O)CSc3nc(-c4ccccc4)c(C#N)c(=O)n3Cc3ccccc3)sc2c1 , is 92.6

// COc1ccc(-c2ccc3c(c2)sc2nc(-c4ccc(F)cc4)cn23)cc1 : growth value = 92.9

The compound COC(=O)[C@]12CC[C@@H](C)[C@H](C)[C@@H]1C1=CC[C@@H]3[C@@]4(C)C(C=O)=C[C@@](C)(CO)[C@@H]4[C@H](O)C[C@@]3(C)[C@]1(C)CC2 showed growth equal to -81.6

What the record says about O=c1c2c3c(sc2nc(N/N=C/c2ccc(Br)cc2)n1Cc1ccccc1)CCCC3 : growth is 87.1

Just so you know, measured growth for N=C(N)c1ccc(-c2ccc(-c3cncc4ccccc34)s2)s1 came out at -88.5

Field growth (entry Cc1c(Cl)cc(-n2c(=O)c3ccccc3c3ccccc3c2=O)cc1Cl ) reads 101

---

# Test system: SK-MEL-2 melanoma
# EXPERIMENT_SUMMARY: NCI-60 one-dose screen, 48 h
# CONDITION_CONTEXT: 10 µM unless noted
This is part of a sample that, as a whole, favours compounds with a hit. Of some 83,000 tested, about 20% had one in any assay. The source made the active and inactive calls. The calls were made as follows: active = growth percent below 10; inactive = the rest.
Respond using exactly one of the listed classes: y for active, n for inactive

| MOLECULE | ANSWER_LABEL |
| --- | --- |
| COc1nc2c(c(=O)n1C)CN(c1ccccc1)C(=O)CN2C | n |
| CCSC1=NC2C(N(CC)C(=O)N2CC)N1/N=C/C=C/c1ccccc1[N+](=O)[O-] (stereo not given) | n |
| CCCCC1CCCCN1C(=O)OCC (stereo not given) | n |

Moving on to the next molecule.
[Q] Would you mind telling me which call this test gave CN(C)CC1=NC2SC=C(c3ccccc3)C2C(=O)N1CC#N (stereo not given) ?
[A] n
